# TARGET_OR_SYSTEM: human recombinant adrenergic α2B receptor (Homo sapiens)
# Construct: expressed in transfected cells; host or cells: Chinese hamster ovary (CHO-K1) cells
# PROTOCOL_DETAILS: Adrenergic α2B radioligand binding ([3H]Rauwolscine)
# CONDITIONS: percent inhibition of specific binding; compound at 1 μM; read-out: Inhibition of ligand binding, Adrenergic α2B
READOUT_KIND: inhibition at 1 µM (%)
Enter your answer as a number in %; do not include the unit.

Would you please look over these solved cases?
compound="CN1CCc2c(c3cc(Cl)ccc3n2/C=C(/c2ccc(F)cc2)C2CC2)C1 [Compound 110]" value_units=% recorded_value=92
compound="CN1CCc2c(c3cc(Cl)ccc3n2C2=C(c3cccnc3)CCCC2)C1 [Compound No. 166]" value_units=% recorded_value=63
compound="Cc1ccc2c(c1)c1c(n2/C=C/c2ccccc2)CCN(C)C1 [Compound 202]" value_units=% recorded_value=98
compound="C/C(=C\\n1c2c(c3cc(C)ccc31)CN(C)CC2)c1ccc(Cl)cc1 [Compound 211]" value_units=% recorded_value=114
compound="C=C(Cn1c2c(c3cc(Cl)ccc31)CN(C)CC2)c1ccc(C)nc1 [Compound 136]" value_units=% recorded_value=90
compound="Cc1ccc2c(c1)c1c(n2/C=C/c2ccc(C)nc2)CCN(C)C1 [compound 95]" value_units=% recorded_value=103
compound="CCN1CCc2c(c3ccccc3n2CC(O)c2ccc(C)cc2)C1 (racemic) [Compound 44]" value_units=% recorded_value=94

## Task Item C/C(=C\n1c2c(c3cc(Cl)ccc31)CN(C)CC2)c1ccc(C)nc1 [Compound 89] has what recorded inhibition at 1 µM?
## Result 108

---

# TARGET_OR_SYSTEM: UniProt:P35367
# PROTOCOL_DETAILS: Histamine H1 radioligand binding ([3H]Pyrilamine)
# CONDITIONS: read-out: Histamine Binding (1 μM) H1, percent inhibition of specific binding, 1 μM
Hi, to clarify the labels: condition met covers inhibition at 1 µM from 60% upward, condition not met covers anything below 60%.

Solved entries (count: 5):
compound=C/C(=C/n1c2c(c3cc(Cl)ccc31)CN(C)CC2)c1ccncc1C target_or_system=UniProt:P35367 assigned_label="condition not met"
compound=C/C(=C\n1c2c(c3cc(C)ccc31)CN(C)CC2)C1CCCCC1 target_or_system=UniProt:P35367 assigned_label="condition met"
compound=Cc1ccc2c(c1)c1c(n2C#Cc2ccc(C)nc2)CCN(C)C1 target_or_system=UniProt:P35367 assigned_label="condition not met"
compound="CN1CCc2c(c3cc(Cl)ccc3n2CC(C)(O)c2ccncc2)C1 (stereo not drawn)" target_or_system=UniProt:P35367 assigned_label="condition not met"
compound=COCCNc1ccc2c(c1)c1c(n2/C=C(\C)c2ccncc2)CCN(C)C1 target_or_system=UniProt:P35367 assigned_label="condition not met"

## Task Is the recorded value of inhibition at 1 µM equal to or greater than 60% for this compound? CCN1CCc2c(c3ccccc3n2CC(O)c2ccc(C)cc2)C1 (racemic)
## Result condition not met

## Task Could you verify whether the entry Cc1ccc2c(c1)c1c(n2CC(O)c2cccnc2)CCN(C)C1 (stereo not drawn) shows inhibition at 1 µM of no less than 60%?
## Result condition met

## Task # bool: inhibition at 1 µM of `Cc1ccc2c(c1)c1c(n2/C=C(\c2ccncc2)C(C)C)CCN(C)C1` >= 60%
## Result condition not met

## Task Does the compound `C/C(=C\n1c2c(c3cc(Cl)ccc31)CN(C)CC2)C1CCCCC1` have recorded inhibition at 1 µM that is 60% or more?
## Result condition met

---

# TARGET_OR_SYSTEM: human dopamine D2L receptor (Homo sapiens)
# Sequence (P14416 whole entry): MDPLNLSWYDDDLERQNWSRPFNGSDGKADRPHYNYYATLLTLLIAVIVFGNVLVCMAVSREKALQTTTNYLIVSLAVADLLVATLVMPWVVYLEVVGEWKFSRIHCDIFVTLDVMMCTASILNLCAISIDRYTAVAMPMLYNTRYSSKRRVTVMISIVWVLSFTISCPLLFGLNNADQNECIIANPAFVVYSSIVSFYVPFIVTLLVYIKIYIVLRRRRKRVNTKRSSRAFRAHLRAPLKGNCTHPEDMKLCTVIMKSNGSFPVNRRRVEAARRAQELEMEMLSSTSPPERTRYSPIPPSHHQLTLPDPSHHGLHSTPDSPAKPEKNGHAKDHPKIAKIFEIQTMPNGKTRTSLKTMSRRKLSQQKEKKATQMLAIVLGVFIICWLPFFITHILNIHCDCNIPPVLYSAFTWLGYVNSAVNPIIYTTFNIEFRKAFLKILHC
# PROTOCOL_DETAILS: Dopamine D2L radioligand binding ([3H]Spiperone)
# CONDITIONS: compound at 1 μM; […] [3H]Spiperone; read-out: Inhibition of ligand binding, Dopamine D2L (percent inhibition of specific binding)
# Description: Non-specific binding was estimated in the presence of […] Haloperidol. Receptor proteins were filtered and washed, the filters were then counted to determine [^3H]Spiperone specifically bound. […] Biochemical assay results are presented as the percent inhibition of specific binding in Table 9.
Labels assigned by inhibition at 1 µM range: bucket 1 (below 50%), bucket 2 (50% to below 80%), bucket 3 (80% or more)

Solved entries:
compound="C/C(=C\\n1c2c(c3cc(N4CCCC4)ccc31)CN(C)CC2)c1ccncc1 [compound 446]" assigned_label="bucket 1"
compound="C/C(=C\\n1c2c(c3cc(Cl)ccc31)CN(C)CC2)c1ccnc(C)c1 [compound 394]" assigned_label="bucket 3"
compound="Cc1ccc2c(c1)c1c(n2C#Cc2ccc(C)nc2)CCN(C)C1 [Compound No. 476]" assigned_label="bucket 1"
compound="C/C(=C\\n1c2c(c3cc(Cl)ccc31)CN(CCCC(O)c1ccc(F)cc1)CC2)c1ccncc1 (stereo not shown) [compound 395]" assigned_label="bucket 3"
compound="CN1CCc2c(c3cc(Cl)ccc3n2C=C(c2ccccc2)c2ccccc2)C1 [compound 407]" assigned_label="bucket 2"

## Task Which category fits this record: COc1ccc(C#Cn2c3c(c4cc(C)ccc42)CN(C)CC3)cc1F [Compound No. 485]
## Result bucket 1

## Task Band for the recorded inhibition at 1 µM of CN1CCc2c(c3cc(Cl)ccc3n2/C=C(\c2ccccc2)c2ccncc2)C1 [Compound No. 460] ?
## Result bucket 2

## Task Class label required: C/C(=C\n1c2c(c3cc(Cl)ccc31)CN(CCC(C)(C)O)CC2)c1ccncc1 [compound 404]
## Result bucket 3

---

# TARGET_OR_SYSTEM: human recombinant adrenergic α2B receptor (Homo sapiens)
# Construct: expressed in transfected cells; host or cells: Chinese hamster ovary (CHO-K1) cells
# Sequence (P18089 1-450): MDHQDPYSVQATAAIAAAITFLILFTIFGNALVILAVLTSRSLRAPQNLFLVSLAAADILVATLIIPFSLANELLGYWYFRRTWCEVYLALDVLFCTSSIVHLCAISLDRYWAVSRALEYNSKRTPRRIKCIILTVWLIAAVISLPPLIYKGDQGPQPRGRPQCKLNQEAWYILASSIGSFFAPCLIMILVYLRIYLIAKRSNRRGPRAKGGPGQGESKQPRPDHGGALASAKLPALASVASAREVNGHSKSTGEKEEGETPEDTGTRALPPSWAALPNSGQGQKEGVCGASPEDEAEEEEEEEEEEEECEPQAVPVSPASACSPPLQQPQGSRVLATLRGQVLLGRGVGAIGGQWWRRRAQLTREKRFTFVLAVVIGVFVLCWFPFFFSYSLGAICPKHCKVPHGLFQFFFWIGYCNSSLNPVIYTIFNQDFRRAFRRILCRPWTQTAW
# PROTOCOL_DETAILS: Adrenergic α2B radioligand binding ([3H]Rauwolscine)
# CONDITIONS: percent inhibition of specific binding; compound at 1 μM; read-out: Inhibition of ligand binding, Adrenergic α2B
READOUT_KIND: inhibition at 1 µM (%)
Your answer is read as %, so omit the unit and give the number.

molecule="Cc1ccc2c(c1)c1c(n2CC(C)(O)c2ccncc2)CCN(C)C1 (stereo not shown)" value_units=% recorded_value=103

## Task Recorded inhibition at 1 µM of `CN1CCc2c(c3cc(Cl)ccc3n2/C=C(\c2ccc(F)cc2)C2CC2)C1` , please.
## Result 108

## Task Sample Cc1ccc2c(c1)c1c(n2CC(O)(c2ccc(F)cc2)C2CCCCC2)CCN(C)C1 (stereo not shown) — what was its inhibition at 1 µM?
## Result 86

## Task State the recorded inhibition at 1 µM for this entry: CCN1CCc2c(c3cc(C)ccc3n2CC(O)c2ccc(C)cc2)C1 (racemic)
## Result 118

---

# TARGET_OR_SYSTEM: histamine receptor H1 (Homo sapiens)
# Sequence (P35367 whole entry): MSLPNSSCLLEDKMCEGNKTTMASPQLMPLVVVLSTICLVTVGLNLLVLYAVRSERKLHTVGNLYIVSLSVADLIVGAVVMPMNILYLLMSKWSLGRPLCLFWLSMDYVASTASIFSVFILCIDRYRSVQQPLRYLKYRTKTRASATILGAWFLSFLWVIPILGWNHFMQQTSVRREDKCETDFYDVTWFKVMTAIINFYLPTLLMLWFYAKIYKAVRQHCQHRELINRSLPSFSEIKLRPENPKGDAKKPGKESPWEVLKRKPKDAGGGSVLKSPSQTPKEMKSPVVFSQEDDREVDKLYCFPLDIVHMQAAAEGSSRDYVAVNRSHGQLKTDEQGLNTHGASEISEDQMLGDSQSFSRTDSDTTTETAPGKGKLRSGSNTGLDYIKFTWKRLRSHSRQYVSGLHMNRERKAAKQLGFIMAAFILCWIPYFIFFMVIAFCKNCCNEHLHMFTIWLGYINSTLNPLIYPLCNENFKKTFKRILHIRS
# PROTOCOL_DETAILS: Histamine H1 radioligand binding ([3H]Pyrilamine)
# CONDITIONS: read-out: Histamine Binding (1 μM) H1, percent inhibition of specific binding, 1 μM
# Description: To evaluate in radioligand binding assays the activity of compounds of the invention, human recombinant histamine H1 receptor expressed in Chinese hamster ovary (CHO) cells (De Backer, M. D. et al., Biochem. Biophys. Res. Comm. 197(3):1601, 1993) in a modified Tris-HCl buffer (50 mM Tris-HCl, pH 7.4, 2 mM MgCl2, 100 mM NaCl, 250 mM Sucrose) was used. […] Receptor proteins were filtered and washed, the filters were then counted to determine [^3H]Pyrilamine specifically bound. […]
Reported inhibition at 1 µM values are given for each entry in this list.
Entry rule: numbers only, all in %.

compound="Cc1ccc2c(c1)c1c(n2CC(C)(O)c2ccncn2)CCN(C)C1 (stereo not drawn)" target_or_system="histamine receptor H1 (Homo sapiens)" readout_kind="inhibition at 1 µM" recorded_value=61
compound=CC/C(=C/n1c2c(c3cc(C)ccc31)CN(C)CC2)c1ccncc1 target_or_system="histamine receptor H1 (Homo sapiens)" readout_kind="inhibition at 1 µM" recorded_value=42
compound=C/C(=C/n1c2c(c3cc(Cl)ccc31)CN(C)CC2)c1cc(F)c(F)cc1Cl target_or_system="histamine receptor H1 (Homo sapiens)" readout_kind="inhibition at 1 µM" recorded_value=95
compound=Cc1ccc2c(c1)c1c(n2/C=C(\F)c2ccncc2)CCN(C)C1 target_or_system="histamine receptor H1 (Homo sapiens)" readout_kind="inhibition at 1 µM" recorded_value=50
compound=C/C(=C/n1c2c(c3cc(Cl)ccc31)CN(C)CC2)C1CCCCC1 target_or_system="histamine receptor H1 (Homo sapiens)" readout_kind="inhibition at 1 µM" recorded_value=29

## Task Entry `COC(=O)c1ccc2c(c1)c1c(n2C#Cc2ccc(F)cc2)CCN(C)C1` has what inhibition at 1 µM?
## Result 11

## Task inhibition at 1 µM for `Cc1ccc2c(c1)c1c(n2C/C(=C/C(=O)O)c2ccc(F)cc2)CCN(C)C1` ?
## Result 4

## Task Requested field: inhibition at 1 µM. Item: `C/C(=C\n1c2c(c3cc(C)ccc31)CN(C)CC2)c1cccc(C(=O)N(C)C)c1`
## Result 37

## Task Quick one: inhibition at 1 µM for `CN1CCc2c(c3cc(Cl)ccc3n2/C=C(/c2ccc(F)cc2)C2CCC2)C1` ?
## Result 76

## Task Reported inhibition at 1 µM for `Cc1ccc2c(c1)c1c(n2C#Cc2ccccc2)CCN(C)C1` : what is it?
## Result 18

## Task Given the entry `COc1c(F)cc(/C(C)=C/n2c3c(c4cc(C)ccc42)CN(C)CC3)cc1F` , report its measured inhibition at 1 µM.
## Result 17

## Task Look up inhibition at 1 µM: COc1ccc(C(C)(O)Cn2c3c(c4cc(C)ccc42)CN(C)CC3)cc1 (stereo not drawn)
## Result 34

## Task Given the compound `C/C(=C/n1c2c(c3cc(Cl)c(Cl)cc31)CN(C)CC2)c1ccncc1` , what is its reported inhibition at 1 µM?
## Result 87

## Task So what's the measured inhibition at 1 µM for this one? `C/C=C(\Cn1c2c(c3cc(Cl)ccc31)CN(C)CC2)c1ccncc1`
## Result 47

## Task Request the reported inhibition at 1 µM associated with C/C(=C\n1c2c(c3cc(Cl)ccc31)CN(C)C(C)C2)c1ccncc1 (stereo not drawn)
## Result 39

Recorded values, source patent US8906925B2.
